Every entry's value here was drawn from ChEMBL document CHEMBL4138119.

# Tested on: Mus musculus
# protocol details: Anti-diabetic activity in ob/ob mouse assessed as change in serum triglyceride levels at 8.4 uM/kg administered via oral gavage daily for 4 days measured on day 5 relative to control
# Type: functional
readout: Activity (%)

compound | readout | endpoint value
CCOC(=O)C(Cc1ccc(OCCn2c(=O)sc3cc(/C=C/c4cc(OC)cc(OC)c4)ccc32)cc1)OCC(F)(F)F (stereo not drawn) | Activity | -3
CCOC(=O)C(Cc1ccc(OCCn2c(=O)sc3cc(C(=O)/C=C/c4cc(OC)cc(OC)c4)ccc32)cc1)OCC (stereo not drawn) | Activity | -34
CCOC(Cc1ccc(OCCn2c(=O)sc3cc(/C=C/c4cc(OC)cc(OC)c4)ccc32)cc1)C(N)=O (stereo not drawn) | Activity | -32
CCOC(=O)C(Cc1ccc(OCCn2c(=O)sc3cc(C(=O)/C=C/c4cc(OC)cc(OC)c4)ccc32)cc1)OCC(F)(F)F (stereo not drawn) | Activity | -24
O=C(O)C(Cc1ccc(OCCn2c(=O)sc3cc(/C=C/c4cc(O)cc(O)c4)ccc32)cc1)OCC(F)(F)F (stereo not drawn) | Activity | -39
CCOC(=O)C(Cc1ccc(OCCn2c(=O)sc3cc(/C=C/c4cc(O)cc(O)c4)ccc32)cc1)OCC (stereo not drawn) | Activity | -19
CCOC(=O)C(Cc1ccc(OCCn2c(=O)sc3cc(/C=C/c4cc(OC)cc(OC)c4)ccc32)cc1)OCC (stereo not drawn) | Activity | -35
COc1cc(/C=C/c2ccc3c(c2)sc(=O)n3CCOc2ccc(CC(OCC(F)(F)F)C(=O)O)cc2)cc(OC)c1 (stereo not drawn) | Activity | -23
